assay: NCI Yeast Anticancer Drug Screen. Data for the mlh1 rad18 strain (AID 175); conditions: S. cerevisiae mlh1 rad18 strain growth inhibition; at 50.0 µM; active compounds read high
About 79,000 compounds went through this panel and 15% of them were active in at least one assay; those are over-represented in the sample as a whole.
growth inhibition values for the compounds below.
Supply the numeric figure in %, leaving out any unit text.

| Compound | Observed |
| --- | --- |
| CC(C)N(CCC#N)C(=S)Nc1cccc(C(F)(F)F)c1 | -2.85 |

Request: Bench note: what growth inhibition did CCCCCCCCCCCCCCCCC1=C(C(=O)OC)NC(N)=NC1O (stereo not given) show?
Result: 22.1

Request: Also `CC(C)c1ccc(C=O)cc1` ?
Result: 11.4

Request: One more compound: N#Cc1ccccc1NC(=O)C(=O)C(C(=O)c1ccncc1)C1OC(=O)c2ccccc21 (stereo not given)
Result: 5.3

Request: Another compound to look at: `CCOC(=O)C(Cc1ccccc1Cl)(Cc1ccccc1Cl)c1ccccc1`
Result: 1.3

Request: Param item: COc1ccc(C(C)c2cc3c(cc2OC)OCO3)cc1OC (stereo not given)
Result: 25.3

Request: Okay, and `COc1ccc(NC(=O)Nc2ccc(Br)cc2)cc1` ?
Result: -15.2

Request: Also need `CCCNN(CCC)C(N)=O` , thanks.
Result: -7.25

Request: Ok, now `CC1(C)S[C@H](c2ccccc2C(=O)O)N[C@@H]1CC(=O)O`
Result: -31.4

Request: Same again, this time with `CC(C)(CCc1nc2ccccc2[nH]1)C(=O)O`
Result: -3.85

Request: Please give the result for `O=C1CSc2ccncc2N1` too.
Result: 24.1

Request: Same for O=C(O)C1CCCCN1/N=C/c1ccccc1 (stereo not given)
Result: 21.9

* * *

Reported growth inhibition values follow for various compounds
Assay: NCI Yeast Anticancer Drug Screen. Data for the cln2 rad14 strain (AID 165);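 also: 0% = growth equal to vehicle treated cultures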
Details: S. cerevisiae cln2 rad14 strain, at 50.0 µM, active compounds read high
Protocol: Growth inhibition of yeast strains with defined genetic alterations is measured as a screen for potential anti-cancer activity. Selected strains with alterations in DNA damage repair or cell cycle control were exposed to compounds and growth inhibition was measured relative to vehicle treated controls. The strain used in this assay is cln2 rad14
The panel holds about 79,000 compounds, 15% with a hit somewhere; the sample as a whole holds those more often.
Report only the number, with the unit % understood.

Recorded results for 10 compounds are shown here.
| Compound | Observed |
| --- | --- |
| O=c1oc(-c2ccc(Cl)cc2Cl)nc2cc(Cl)ccc12 | 22.2 |
| CNC(=O)OCCCCCCCCCCOC(=O)NC | -23.7 |
| Oc1cccc2nc3cc(CN4CCOCC4)c(CN4CCOCC4)cc3nc12 | 2.7 |
| C=CCNC(=O)CS(=O)(=O)c1ccc(C)cc1 | 15.3 |
| Cc1cc(=O)oc2ccccc12 | -3.1 |
| CC(=O)N1c2ccccc2C2=NN(C)C(=N)SC21 (stereo not drawn) | -7.65 |
| COc1ccc(C(=O)c2cc3c(ccc4ccccc43)oc2=O)cc1 | 2.85 |
| Cc1ccc(-c2nc3scc(C)n3n2)cc1 | -29 |
| CN(C)c1ccc(/C=C2\CCOC2=O)cc1 | 4.6 |
| CCCC(C)C(=O)O (stereo not drawn) | 23.1 |

Request: Fill in: growth inhibition of `O=[N+]([O-])c1cccc(NSNc2cccc([N+](=O)[O-])c2)c1` is ___
Result: 23.1

Request: Record: `Cc1cccc(NC(=O)Nc2ccccc2)n1`
Result: -71.5

Request: Would you mind doing `COc1ccc(Cl)cc1NC(=O)Nc1ccc(F)c([N+](=O)[O-])c1` as well?
Result: -9.8

* * *

test: NCI Yeast Anticancer Drug Screen. Data for the mlh1 rad18 strain (AID 175); settings: S. cerevisiae mlh1 rad18 strain growth inhibition; at 50.0 µM
Compounds without any hit were thinned out: in the full panel of roughly 79,000, 15% have a hit. Activity calls are given as the source filed them. Cut-off read from the data, not from the text of the source: active = growth inhibition above about 70%; inactive = the rest.
Write down the outcome that applies. Available outcomes: 1 for active, 0 for inactive

Worked examples follow.
| Compound | Assigned Label |
| --- | --- |
| CCOC(=O)NC(NC(=O)OCC)c1ccc(Cl)cc1Cl | 0 |
| Cc1cccc(NCc2ccncc2)n1 | 0 |
| COc1ccc(C(CCl)(CCl)c2ccc(OC)cc2)cc1 | 0 |
| COc1ccc(-c2cc(C(=O)Nc3cc(Cl)cc(Cl)c3)c3ccccc3n2)cc1 | 0 |
| O=C1CN(CCN2CCCCC2)CC(=O)N2CCCCN12 | 0 |

Request: Any idea what this test logged for COc1ccc(C(C)Nc2cc(OC)c(OC)c(OC)c2)cc1 (configuration not stated) ?
Result: 0

Request: Would you mind doing [Fe+2].[NH-]C(Cc1ccc(O)cc1)C(=O)O.[NH-]C(Cc1ccc(O)cc1)C(=O)O (configuration not stated) as well?
Result: 0

Request: Similarly, `COC(=O)C1=C(C(=O)OC)C(=Nc2ccccc2)c2ccccc2C1=O` ?
Result: 1

* * *

test: NCI Yeast Anticancer Drug Screen. Data for the rad50 strain (AID 155);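 also: 0% = growth of vehicle-only cultures of the same strain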; settings: S. cerevisiae rad50 strain growth inhibition; at 50.0 µM; active compounds read high
About 79,000 compounds went through this panel and 15% of them were active in at least one assay; those are over-represented in the sample as a whole.
Reported Endpoint: growth inhibition (%)
The figure you give is taken to be in %; do not add the unit.

Some solved cases for reference:
| Compound | growth inhibition, % |
| --- | --- |
| CCC(O)C1CCCCC1O (configuration not stated) | -8.95 |
| CC1(C(=O)O)CCCC1C(CCC(=O)O)C(=O)O (configuration not stated) | -13.8 |
| Cc1cc(=O)oc2ccccc12 | 8.8 |
| CC(Oc1ccc(OCC2CCCCC2)cc1)C(=O)OCC(=O)c1ccc(-c2ccccc2)cc1 (configuration not stated) | -9.75 |
| CC(=O)CCn1ncc(Cl)c(Cl)c1=O | 1.4 |

Next compound, growth inhibition to be filled in.
Request: Query: growth inhibition; subject: CCNC1CC(C(C)(C)NCC)CC=C1C (configuration not stated)
Result: -31.4

* * *

Test: NCI Yeast Anticancer Drug Screen. Data for the rad50 strain (AID 155);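 also: 0% = growth of vehicle-only cultures of the same strain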
Details: S. cerevisiae rad50 strain growth inhibition; at 50.0 µM; active compounds read high
Description: Growth inhibition of yeast strains with defined genetic alterations is measured as a screen for potential anti-cancer activity. Selected strains with alterations in DNA damage repair or cell cycle control were exposed to compounds and growth inhibition was measured relative to vehicle treated controls. The strain used in this assay is rad50
The panel holds about 79,000 compounds, 15% with a hit somewhere; the sample as a whole holds those more often.
Reported Endpoint: growth inhibition (%)
Just the number please, in %, no unit attached.

Before answering, review these 5 worked examples.
| Compound | Observed |
| --- | --- |
| OCC(O)c1ccccn1 (stereo not given) | 5.5 |
| CC(=O)NC(C)(C)C1CCC(C)CC1 (stereo not given) | -7.95 |
| CC(=O)OCCc1cccc(C)c1 | 3.9 |
| CCCC1OCC(CC)C(CCC)O1 (stereo not given) | 25.5 |
| CC1NC(C)SC(C)S1 (stereo not given) | -9.15 |

Turning now to a further compound:
Request: Looking for the measured growth inhibition of CC1(O)C(O)C(O)C1(O)CO (stereo not given) (tested in a mixture with another compound) , can you help?
Result: 6.55

* * *

experiment: NCI Yeast Anticancer Drug Screen. Data for the mlh1 rad18 strain (AID 175); details: S. cerevisiae mlh1 rad18 strain growth inhibition; at 50.0 µM; active compounds read high
About 79,000 compounds went through this panel and 15% of them were active in at least one assay; those are over-represented in the sample as a whole.
Entries annotated with measured growth inhibition
Write the value in % as a bare number.

# annotated cases, reported growth inhibition shown
| Compound | Reported Endpoint | Quantity Unit | Observed |
| --- | --- | --- | --- |
| CN1CCN(CCNNCCN2CCCC(O)C2)CC1 (stereo not drawn) | growth inhibition | % | 10.7 |
| NNc1nnnc2ccccc12 | growth inhibition | % | 22.2 |
| c1ccc(CSc2cnnc3ccccc23)cc1 | growth inhibition | % | 31.9 |
| CN(C)c1noc2c1c(=O)n(C)c(=O)n2C | growth inhibition | % | 14.8 |

Request: Item CCCCOC(=O)C(N)Cc1ccccc1 (stereo not drawn) has what recorded growth inhibition?
Result: -22.2

Request: Consider next the compound `CC(=O)Oc1cccc(C)c1` in the same way.
Result: -5.65

Request: Repeat with `COC1=Cc2nc3ccccc3nc2OC1(C)C`
Result: 3.75

Request: // query: `COC1=C(OC)C(=O)C2=C(OCO2)C1=O`
Result: -1.1

* * *

Recorded growth inhibition values for a group of compounds are listed next.
assay: NCI Yeast Anticancer Drug Screen. Data for the mec2-1 strain (AID 157); conditions: S. cerevisiae mec2-1 strain, at 50.0 µM, active compounds read high
About 79,000 compounds went through this panel and 15% of them were active in at least one assay; those are over-represented in the sample as a whole.
Numeric only. Scale: %

Illustrative cases are given below, each with its answer.
| Compound | Observed |
| --- | --- |
| CCC(=O)/C=C/c1ccc(Cl)cc1 | 8 |
| Nc1ccnc2n[nH]nc12 | -2 |
| O=C(O)c1nccc2c(O)cccc12 | -4.45 |
| NC(CCCCNCc1ccccc1O)C(=O)O (stereo not given) | 14.2 |
| O=C1CC(=O)C(C(=O)c2ccccc2)N1 (stereo not given) | 8.55 |
| CCCCOc1cc2c(cc1C(C)c1ccccc1)OCO2 (stereo not given) | -3.95 |
| C=C(C)C(=O)Nc1ccc2nn(-c3ccccc3O)nc2c1 | -25.4 |
| CC(C)OC(=O)NCc1cccs1 | -2.6 |
| Oc1ccc(O)c(CCCc2cc(O)ccc2O)c1 | 7.8 |
| O=C1CC2COc3ccccc3C2=NN1c1ccccc1 (stereo not given) | 4.3 |

Request: Which growth inhibition value belongs to CC(=O)OCC(OC(C)=O)C(OC(C)=O)C(OC(C)=O)C(OC(C)=O)C(C=O)OC(C)=O (stereo not given) ?
Result: -1.7

Request: Input `OCc1ccccc1CN1CCCC1`
Result: 1.15

Just for reference, PubChem BioAssay (NCI) is where these values come from.
